- assay target: human recombinant ALR2 (Homo sapiens, UniProt P15121)
- experiment description: ALR2 enzyme inhibition assay (NADPH oxidation, D,L-glyceraldehyde substrate)
- Assay type: biochemical
- run parameters: raw data, average of three replicates; unit not given (molar scale); read-out: IC50 average (ALR2)
Classes are defined on IC50 with ranges class 0 = under 5 µM, class 1 = from 5 µM up to 8 µM, class 2 = 8 µM and over

Example entries and their recorded answers appear below.
INSERT INTO results (compound_structure_string, class_name) VALUES
  ('COc1ccc(C=Cc2cc(=O)c(O)cn2CC(=O)O)cc1', 'class 1'),
  ('O=C(O)Cn1cc(O)c(=O)cc1C=Cc1ccc(C(F)(F)F)cc1', 'class 2'),
  ('O=C(O)Cn1cc(O)c(=O)cc1C=Cc1ccc(O)c(O)c1', 'class 0'),
  ('O=C(O)Cn1cc(O)c(=O)cc1C=Cc1ccc(F)cc1', 'class 1'),
  ('COc1ccc(C=Cc2cc(=O)c(O)cn2CC(=O)O)cc1OC', 'class 2');

Field: class (IC50) — entry: "CS(=O)(=O)c1ccc(C=Cc2cc(=O)c(O)cn2CC(=O)O)cc1" class 2

Field: class (IC50) — entry: "CC(C)(C)c1ccc(C=Cc2cc(=O)c(O)cn2CC(=O)O)cc1" class 0

Field: class (IC50) — entry: "O=C(O)Cn1cc(O)c(=O)cc1C=Cc1ccc(F)c(F)c1" class 0

Field: class (IC50) — entry: "O=C(O)Cn1cc(O)c(=O)cc1C=Cc1ccccc1" class 2

Field: class (IC50) — entry: "Cc1ccc(C=Cc2cc(=O)c(O)cn2CC(=O)O)cc1" class 1

----------
- experiment description: DPPH radical scavenging assay
- run parameters: 100 μM, n = 3
Kindly apply the following: yes if % of Inhibition of Control Value (DPPH) is less than 30%, no in every other case.

INSERT INTO measurements (compound, class_name) VALUES
  ('Cc1c(C)c2c(c(C)c1O)CCC(C)(C(=O)O)O2 (stereo not drawn) [Trolox, reference compound]', 'no'),
  ('O=C(O)Cn1cc(O)c(=O)cc1C=Cc1ccccc1 [7a]', 'yes'),
  ('O=C(O)Cn1cc(O)c(=O)cc1C=Cc1ccc(F)c(F)c1 [7g]', 'yes'),
  ('O=C(O)Cn1cc(O)c(=O)cc1C=Cc1ccc(O)cc1 [7k]', 'no'),
  ('CC(C)(C)c1ccc(C=Cc2cc(=O)c(O)cn2CC(=O)O)cc1 [7c]', 'yes');

Continue with the compound presented below.
Dear colleague, could you confirm whether % of Inhibition of Control Value (DPPH) of O=C(O)Cn1cc(O)c(=O)cc1C=Cc1ccc(O)c(O)c1 [7l] falls below 30%? Thanks. no
